These measurements were taken from patent US20240034792A1.

# measuredTarget: T1, Human PD-1 expressed on CHO-K1 cells (CHO-K1/hPD-1) (human, UniProt Q15116 25-288)
# T1 construct: whole, on cells; also called CHO-K1 cells overexpressing human PD-1
# T1 sequence (Q15116 25-288): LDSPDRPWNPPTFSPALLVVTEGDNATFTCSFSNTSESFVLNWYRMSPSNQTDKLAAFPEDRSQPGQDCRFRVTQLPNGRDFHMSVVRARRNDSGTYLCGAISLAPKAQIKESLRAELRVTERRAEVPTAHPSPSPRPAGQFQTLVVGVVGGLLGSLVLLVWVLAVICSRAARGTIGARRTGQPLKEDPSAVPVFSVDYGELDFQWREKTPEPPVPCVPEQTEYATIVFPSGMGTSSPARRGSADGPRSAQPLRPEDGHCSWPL
# experimentSummary: FACS, CHO-K1/hPD-1 cells
Listed here: items and their measured Maximum (MFI).
Reply with just the number.

binder="PR005572 (antibody, human IgG1, V domains shown, no light chain; also called anti-PD1 PR002481Com_32 HCAb hIgG1) VH: EVQLVETGGGLIQPGGSLRLSCAASGFNVAFYYMSWVRQAPGKGREWVSIIDKGGSTYYADSVKGRFTISRDNSKNRLYLQMNSLRAEDTAMYYCARATEVREKQGYNYPFNYWGQGTLVTVSS" quantitativeresult=3.04e+06
binder="PR005583 (antibody, human IgG1, V domains shown, no light chain; also called anti-PD1 PR002481Com_29 HCAb hIgG1) VH: EVQLVETGGGLIQPGGSLRLSCAASGFNVASFYMSWVRQAPGKGREWVSIIDKAGSTYYADSVKGRFTISRDNSKNRLYLQMNSLRAEDTAMYYCARATEVREKQGYNYPFNYWGQGTLVTVSS" quantitativeresult=2.76e+06
binder="PR005578 (antibody, human IgG1, V domains shown, no light chain; also called anti-PD1 PR002481Com_27 HCAb hIgG1) VH: EVQLVETGGGLIQPGGSLRLSCAASGFNVASYYMSWVRQAPGKGREWVSIIDKAGSGYYADSVKGRFTISRDNSKNRLYLQMNSLRAEDTAMYYCARATAVREKQGYNYPFNYWGQGTLVTVSS" quantitativeresult=2.71e+06

Ask: Request the reported Maximum (MFI) associated with PR005577 (antibody, human IgG1, V domains shown, no light chain; also called anti-PD1 PR002481Com_26 HCAb hIgG1) VH: EVQLVETGGGLIQPGGSLRLSCAASGFNVASYYMSWVRQAPGKGREWVSIIDKAGSGYYADSVKGRFTISRDNSKNRLYLQMNSLRAEDTAMYYCARATEVREKQGYNYPFNYWGQGTLVTVSS
Reply: 2.49e+06

Ask: Query: Maximum (MFI); subject: PR005569 (antibody, human IgG1, V domains shown, no light chain; also called anti-PD1 PR002481R2M4_E2 HCAb hIgG1) VH: EVQLVETGGGLIQPGGSLRLSCAASGFNVSFYYMSWVRQAPGKGREWVSIIDKSGSTYYAASVKGRFTISRDNSKNRLYLQMNSLRAEDTAMYYCARATEVREKNGYNYPFNYWGQGTLVTVSS
Reply: 3.14e+06

Ask: Could you share which Maximum (MFI) value was measured for PR005585 (antibody, human IgG1, V domains shown, no light chain; also called anti-PD1 PR002481Com_35 HCAb hIgG1) VH: EVQLVETGGGLIQPGGSLRLSCAASGFTVSSFYMSWVRQAPGKGREWVSIIDKAGSTYYADSVKGRFTISRDNSKNRLYLQMNSLRAEDTAMYYCARATEVREKQGYNYPFNYWGQGTLVTVSS ?
Reply: 3.11e+06

Ask: Need Maximum (MFI), item PR005575 (antibody, human IgG1, V domains shown, no light chain; also called anti-PD1 PR002481Com_24 HCAb hIgG1) VH: EVQLVETGGGLIQPGGSLRLSCAASGFNVASHYMSWVRQAPGKGREWVSIIDKAGSGYYADSVKGRFTISRDNSKNRLYLQMNSLRAEDTAMYYCARATEVREKQGYNYPFNYWGQGTLVTVSS
Reply: 2.58e+06

Ask: Report Maximum (MFI) for PR002481 (antibody, human IgG1, V domains shown, Heavy-chain-only antibody (HCAb), human IgG1 Fc; two heavy chains, no light chain; also called R4004P556D1; anti-PD1 R4004P556D1 HCAb hG1) VH: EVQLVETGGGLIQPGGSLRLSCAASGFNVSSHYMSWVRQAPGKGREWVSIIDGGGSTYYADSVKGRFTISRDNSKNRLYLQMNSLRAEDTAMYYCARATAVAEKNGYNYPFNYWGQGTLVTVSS please.
Reply: 2.75e+06
